# reported log10(IC50); entries follow
Biological target: AHR (Homo sapiens, UniProt P35869)
Construct: U87 MG glioblastoma cells (ATCC #HTB-14) endogenously expressing AHR; endogenous in cells; host or cells: U87 MG glioblastoma cells (ATCC #HTB-14)
Sequence (P35869 11-848): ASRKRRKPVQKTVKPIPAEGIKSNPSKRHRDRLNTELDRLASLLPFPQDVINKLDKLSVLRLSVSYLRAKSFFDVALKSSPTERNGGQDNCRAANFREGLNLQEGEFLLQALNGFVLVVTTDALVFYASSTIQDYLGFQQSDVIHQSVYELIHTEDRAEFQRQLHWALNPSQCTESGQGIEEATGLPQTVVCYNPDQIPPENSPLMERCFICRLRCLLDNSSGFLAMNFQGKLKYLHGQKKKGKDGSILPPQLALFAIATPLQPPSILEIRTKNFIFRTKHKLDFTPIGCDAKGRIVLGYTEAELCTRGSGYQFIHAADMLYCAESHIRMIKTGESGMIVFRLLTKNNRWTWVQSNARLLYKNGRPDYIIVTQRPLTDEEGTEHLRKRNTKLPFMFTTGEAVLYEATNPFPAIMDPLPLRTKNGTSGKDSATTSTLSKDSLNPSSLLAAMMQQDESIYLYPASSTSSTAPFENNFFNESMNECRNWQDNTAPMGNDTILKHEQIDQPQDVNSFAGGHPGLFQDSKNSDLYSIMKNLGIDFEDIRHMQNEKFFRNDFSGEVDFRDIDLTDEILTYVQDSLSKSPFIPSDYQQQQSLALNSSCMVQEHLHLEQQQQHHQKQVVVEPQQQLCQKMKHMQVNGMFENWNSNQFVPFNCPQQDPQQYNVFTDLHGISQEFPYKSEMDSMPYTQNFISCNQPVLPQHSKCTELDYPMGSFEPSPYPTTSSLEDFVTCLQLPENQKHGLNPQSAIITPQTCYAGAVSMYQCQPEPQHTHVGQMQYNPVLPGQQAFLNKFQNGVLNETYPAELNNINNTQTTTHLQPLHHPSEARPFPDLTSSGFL
Experiment: In vitro assay 1: antagonism in human cell line (AHR transactivation, firefly luciferase reporter, kynurenic acid prestimulated)
Format: cell-based
Conditions: AHR Antagonism Human IC50 [M]
PROPERTY_LABEL: log10(IC50) (log10 of the value in M)

molecule="COc1cccc(-c2nc3c4cc(F)ccc4nc(N[C@H]4CCCCNC4=O)n3n2)c1 [Example 160]" observed_value=-6.84
molecule="O=C1NCCNC[C@H]1Nc1nc2ccccc2c2nc(-c3cccc(Cl)c3Cl)nn12 [Example 263]" observed_value=-6.41
molecule="CS(=O)(=O)c1ccccc1-c1nc2c3ccccc3nc(N[C@@H]3CCCCNC3=O)n2n1 [Example 649]" observed_value=-6.42
molecule="O=C1NCCCC[C@H]1Nc1nc2ccccc2c2nc(-c3cnn(C4CC4)c3)nn12 [Example 535]" observed_value=-8.29
molecule="COc1ccc(-c2nc3c4cccc(C)c4nc(N[C@@H]4CCCCNC4=O)n3n2)cc1 [Example 143]" observed_value=-9.62
molecule="COc1ccc(-c2nc3c4ccccc4nc(NC4CNCCNC4=O)n3n2)cc1 (single isomer, unassigned) [Example 35]" observed_value=-5.81
molecule="CSc1ccccc1-c1nc2c3ccccc3nc(N[C@@H]3CCCCNC3=O)n2n1 [Example 478]" observed_value=-7.30
molecule="Cn1cc(-c2nc3c4cccc(Br)c4nc(N[C@H]4CCCCNC4=O)n3n2)cn1 [Example 580]" observed_value=-7.27
